- System: MFM-223
- measurement.protocol: drug sensitivity score (DSS), CellTox Green (DSS (AUC-based score)); higher = stronger drug effect (viability inhibition or cytotoxicity); extreme values may be limits of the assay
- measurement.context: incubation time: 72 h
Below, each of the compounds is paired with its reported drug sensitivity score value.
Just the number, please, no unit after it.

// known answers, use as guide
>  <compound>
Cn1cc(C[C@@H](N)C(=O)O)c2ccccc21

>  <drug sensitivity score>
0

$$$$
>  <compound>
CC[C@@H]1C(=O)N(C)c2cnc(Nc3ccc(C(=O)N[C@H]4CC[C@H](N5CCN(CC6CC6)CC5)CC4)cc3OC)nc2N1C(C)C

>  <drug sensitivity score>
14.5

$$$$
>  <compound>
Cn1nnc2c(C(N)=O)ncn2c1=O [Temozolomide]

>  <drug sensitivity score>
0

$$$$
>  <compound>
CC/C(=C(\c1ccccc1)c1ccc(OCCN(C)C)cc1)c1ccccc1

>  <drug sensitivity score>
0

$$$$
>  <compound>
Cc1c(C(=O)Nc2ccc(N3C[C@@H](C)O[C@@H](C)C3)nc2)cccc1-c1ccc(OC(F)(F)F)cc1

>  <drug sensitivity score>
0

$$$$
>  <compound>
N[C@@H](Cc1ccc(N(CCCl)CCCl)cc1)C(=O)O

>  <drug sensitivity score>
16.5

$$$$
>  <compound>
CO[C@H](C(=O)[C@@H](O)[C@@H](C)O)[C@@H]1Cc2cc3cc(O[C@H]4C[C@@H](O[C@@H]5C[C@@H](O)[C@H](O)[C@@H](C)O5)[C@H](O)[C@@H](C)O4)c(C)c(O)c3c(O)c2C(=O)[C@H]1O[C@H]1C[C@@H](O[C@@H]2C[C@@H](O)[C@@H](O[C@@H]3C[C@](C)(O)[C@H](O)[C@@H](C)O3)[C@@H](C)O2)[C@H](O)[C@@H](C)O1

>  <drug sensitivity score>
0

$$$$
>  <compound>
CCCCCOC(=O)Nc1nc(=O)n([C@@H]2O[C@H](C)[C@@H](O)[C@H]2O)cc1F

>  <drug sensitivity score>
3.74

$$$$
>  <compound>
CC(C)NC[C@@H](C(=O)N1CCN(c2ncnc3c2[C@H](C)C[C@H]3O)CC1)c1ccc(Cl)cc1

>  <drug sensitivity score>
1.29

$$$$
>  <compound>
CN1CCN(c2nc(C3=C(c4c[nH]c5ccccc45)C(=O)NC3=O)c3ccccc3n2)CC1

>  <drug sensitivity score>
0

$$$$

The record that follows has no drug sensitivity score shown yet.
Value of drug sensitivity score reported for the compound "COc1cc(Nc2ncc(F)c(Nc3ccc4c(n3)N(COP(=O)(O)O)C(=O)C(C)(C)O4)n2)cc(OC)c1OC" is 0

src = the supplement of paper PMC4862054
